// provenance: patent US20250215029A1

Molecular target: Recombinant STAT6 protein (STAT6 (W123-T658)) (Homo sapiens)
Construct: Recombinant STAT6 protein (STAT6 (W123-T658))
Sequence (P42226 123-658): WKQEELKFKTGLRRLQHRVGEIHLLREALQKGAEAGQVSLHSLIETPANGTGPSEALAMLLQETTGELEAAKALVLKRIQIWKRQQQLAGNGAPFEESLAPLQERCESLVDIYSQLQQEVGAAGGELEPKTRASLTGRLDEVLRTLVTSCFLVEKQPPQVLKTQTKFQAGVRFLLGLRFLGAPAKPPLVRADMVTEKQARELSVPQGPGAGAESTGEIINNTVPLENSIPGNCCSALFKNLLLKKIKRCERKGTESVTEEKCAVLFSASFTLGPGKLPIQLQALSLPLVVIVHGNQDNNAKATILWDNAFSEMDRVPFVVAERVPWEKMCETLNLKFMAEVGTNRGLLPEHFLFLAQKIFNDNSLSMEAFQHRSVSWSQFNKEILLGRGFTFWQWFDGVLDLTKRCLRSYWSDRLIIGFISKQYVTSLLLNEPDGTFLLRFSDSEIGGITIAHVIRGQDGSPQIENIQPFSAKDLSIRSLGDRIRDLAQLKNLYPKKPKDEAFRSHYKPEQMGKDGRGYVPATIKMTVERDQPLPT
Test: STAT6 Fluorescence Polarization (FP) Assay
Type: binding
Settings: STAT6 (W123-T658) 250 nM, probe 5-FAM-Ap[…]-NH2 2 nM, 45-minute incubation; read-out: STAT6 (FP assay IC50 class)
Procedure: STAT6 Fluorescence Polarization (FP) Assay An FP assay was developed to determine IC50 values for test substances. […] Reaction components were mixed, and FP was measured after 45-minute incubation at room temperature using a Tecan Spark multimode plate reader. FP signal (mP) was plotted against the log concentration of the test substances and IC50 values were calculated by nonlinear regression analysis using GraphPad Prism software. […]
Hi there, I'd appreciate the recorded IC50 for every entry that follows.

INSERT INTO measurements (molecule, observed) VALUES
  ('COC[C@@H]1CCN1c1ncncc1C1CN(C(=O)[C@@H]2CC[C@@H]3CCC[C@H](NC(=O)c4cc5cc(CP(=O)(O)O)ccc5s4)C(=O)N32)C1', '3 to 30 µM');

// batch mode: one IC50 value per listed entry
1. CO[C@@H]1CCN(c2ccncc2C2CN(C(=O)[C@@H]3CC[C@@H]4CCC[C@H](NC(=O)c5cc6cc(CP(=O)(O)O)ccc6s5)C(=O)N43)C2)C1
2. O=C(N[C@H]1CCCC[C@H]2CC[C@@H](C(=O)N3C(=O)N(c4cccnc4)C(=O)C34CC4)N2C1=O)c1cc2cc(C(F)P(=O)(O)O)ccc2s1 (stereo partly drawn)

output:
1. 3 to 30 µM
2. ≤ 0.3 µM

* * *

Target: Recombinant STAT6 protein (STAT6 (W123-T658)) (Homo sapiens)
Construct: Recombinant STAT6 protein (STAT6 (W123-T658))
Assay: STAT6 Fluorescence Polarization (FP) Assay
Format: binding
Details: STAT6 (W123-T658) 250 nM, probe 5-FAM-Ap[…]-NH2 2 nM, 45-minute incubation; read-out: STAT6 (FP assay IC50 class)
Experimental: STAT6 Fluorescence Polarization (FP) Assay An FP assay was developed to determine IC50 values for test substances. […] Reaction components were mixed, and FP was measured after 45-minute incubation at room temperature using a Tecan Spark multimode plate reader. FP signal (mP) was plotted against the log concentration of the test substances and IC50 values were calculated by nonlinear regression analysis using GraphPad Prism software. […]
Measurement Name: IC50

INSERT INTO measurements (compound, target_system, observed) VALUES
  ('C/C1=C/C[C@H](NC(=O)c2cc3cc(C(F)(F)P(=O)(O)O)ccc3s2)C(=O)N2[C@H](CC[C@H]2C(=O)N2CC(c3cnccc3C)C2)C1 [Compound 641]', 'Recombinant STAT6 protein (STAT6 (W123-T658)) (Homo sapiens)', '0.3 to 3 µM');

// batch mode: one IC50 value per listed entry
1. O=C(N[C@H]1CCCC[C@H]2CC[C@@H](C(=O)N3CC(c4ccccc4)CC34CC4)N2C1=O)c1ccc2ccc(CP(=O)(O)O)nc2c1 (some centres unmarked) [Compound 571]
2. O=C(N[C@H]1CCC[C@H]2CC[C@@H](C(=O)N3CC(c4cnccc4N4CC(OC(F)F)C4)C3)N2C1=O)c1cc2cc([C@@H](F)P(=O)(O)O)ccc2s1 [Compound 852]

output:
["3 to 30 µM", "0.3 to 3 µM"]

// batch mode: one IC50 value per listed entry
1. CN(C)c1ccncc1C1CN(C(=O)[C@@H]2CC[C@@H]3CCC[C@H](NC(=O)c4cc5cc([C@@H](F)P(=O)(O)O)ccc5s4)C(=O)N32)C1 (single isomer, unassigned) [Compound 631]
2. N#C[C@H]1[C@H](c2ccccc2)CN(C(=O)[C@@H]2CC[C@@H]3CCC[C@H](NC(=O)c4cc5cc(CP(=O)(O)O)ccc5s4)C(=O)N32)C12CC2 [Compound 922]

output:
1. 3 to 30 µM
2. 0.3 to 3 µM

* * *

molecular target: Recombinant STAT6 protein (STAT6 (W123-T658)) (Homo sapiens); construct: Recombinant STAT6 protein (STAT6 (W123-T658)); experiment: STAT6 Fluorescence Polarization (FP) Assay; assay type: binding; details: STAT6 (W123-T658) 250 nM, probe 5-FAM-Ap[…]-NH2 2 nM, 45-minute incubation; read-out: STAT6 (FP assay IC50 class)
pIC50: −log10 of the molar value.
Measurement Name: pIC50

INSERT INTO assay_data (compound, observed) VALUES
  ('CCC[C@H]1CC[C@H](NC(=O)c2cc3cc(C(F)P(=O)(O)O)ccc3s2)C(=O)N2[C@H](CC[C@H]2C(=O)N2CC(c3cnccc3OC)C2)C1 (stereo partly drawn)', '4.52 to 5.52');

// batch mode: one pIC50 value per listed entry
1. C[C@H]1CC[C@H](NC(=O)c2ccc3ccc(CP(=O)(O)O)cc3c2)C(=O)N2[C@H](CC[C@H]2C(=O)N2CC(c3ccccc3)CC23CC3)C1 (stereo partly drawn)
2. COc1ccncc1C1CN(C(=O)[C@@H]2CC[C@@H]3C[C@H](C(C)C)CC[C@H](NC(=O)c4cc5cc(C(F)P(=O)(O)O)ccc5s4)C(=O)N32)C1 (stereo partly drawn)

output:
1: 5.52 to 6.52; 2: 4.52 to 5.52

* * *

target: pY705-STAT3 in PBMC (Homo sapiens, UniProt P40763); construct: Cryopreserved Peripheral Blood Mononuclear Cells (PBMC) are from AllCells; host or cells: cryopreserved PBMC; assay: MSD-pSTAT-PBMC Assay (pSTAT3, IL-6 stimulated); type: cell-based; conditions: PBMC, compound 3 hrs, then 10 ng/mL IL-6 for 10 min; Table 1114; read-out: pSTAT3
Sequence (P40763 whole entry): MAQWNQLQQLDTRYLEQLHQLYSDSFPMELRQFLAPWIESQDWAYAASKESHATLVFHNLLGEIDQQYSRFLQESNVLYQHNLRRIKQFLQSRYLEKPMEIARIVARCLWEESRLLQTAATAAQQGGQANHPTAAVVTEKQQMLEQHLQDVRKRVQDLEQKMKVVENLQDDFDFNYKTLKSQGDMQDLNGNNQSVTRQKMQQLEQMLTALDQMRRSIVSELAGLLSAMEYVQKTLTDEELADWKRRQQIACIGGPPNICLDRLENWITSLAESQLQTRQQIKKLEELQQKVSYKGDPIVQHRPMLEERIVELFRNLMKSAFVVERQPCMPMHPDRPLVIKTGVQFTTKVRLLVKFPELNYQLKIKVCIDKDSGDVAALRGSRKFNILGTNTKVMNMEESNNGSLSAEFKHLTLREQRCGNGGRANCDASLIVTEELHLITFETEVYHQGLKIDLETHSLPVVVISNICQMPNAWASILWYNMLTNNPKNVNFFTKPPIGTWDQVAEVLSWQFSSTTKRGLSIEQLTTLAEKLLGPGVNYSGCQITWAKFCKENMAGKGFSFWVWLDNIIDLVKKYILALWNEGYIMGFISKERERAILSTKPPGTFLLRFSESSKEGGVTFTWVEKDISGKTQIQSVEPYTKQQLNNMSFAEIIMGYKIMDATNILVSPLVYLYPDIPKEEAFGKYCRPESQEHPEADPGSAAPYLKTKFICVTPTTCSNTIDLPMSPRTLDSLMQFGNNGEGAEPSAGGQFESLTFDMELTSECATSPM
Measurement Name: IC50

Please review the following examples before continuing.
INSERT INTO results (compound, target_system, observed) VALUES
  ('CC(C)(C)C(=O)OCOP(=O)(OCOC(=O)C(C)(C)C)C(F)(F)c1ccc2sc(C(=O)N[C@H]3CCC[C@H]4CC[C@@H](C(=O)N5CC(c6cccnc6)C5)N4C3=O)cc2c1', 'pY705-STAT3 in PBMC (Homo sapiens, UniProt P40763)', '< 100 nM'),
  ('CC(C)CC(=O)SCCOP(=O)(OCCSC(=O)CC(C)C)C(F)(F)c1ccc2ccc(C(=O)N[C@H]3CCCC[C@H]4CC[C@@H](C(=O)N5CCC(c6cc[nH]c(=O)c6)C5)N4C3=O)cc2c1 (some centres unmarked)', 'pY705-STAT3 in PBMC (Homo sapiens, UniProt P40763)', '< 100 nM'),
  ('CC(C)(C)C(=O)OCOP(=O)(OCOC(=O)C(C)(C)C)C(F)(F)c1ccc2sc(C(=O)N[C@@]3(C)CCCC[C@H]4CC[C@@H](C(=O)N5CC(C(=O)N6CCOCC6)C5)N4C3=O)cc2c1', 'pY705-STAT3 in PBMC (Homo sapiens, UniProt P40763)', '< 100 nM');

// batch mode: one IC50 value per listed entry
1. CC(C)CC(=O)SCCCCOP(=O)(OCCCCSC(=O)CC(C)C)C(F)(F)c1ccc2sc(C(=O)N[C@H]3CCCC[C@H]4CC[C@@H](C(=O)N5CC(C#N)C(c6ccccc6)C5)N4C3=O)cc2c1 (single isomer, unassigned)
2. CC(C)(C)C(=O)OCOP(=O)(OCOC(=O)C(C)(C)C)C(F)(F)c1ccc2sc(C(=O)N[C@H]3CCCC[C@H]4CC[C@@H](C(=O)N5C[C@H](c6ccccc6)[C@@H](C#N)C5)N4C3=O)cc2c1 (relative stereo)
3. CC(C)(C)C(=O)OCOP(=O)(OCOC(=O)C(C)(C)C)[C@@H](F)c1ccc2sc(C(=O)N[C@H]3CCCC[C@H]4CC[C@@H](C(=O)N5C[C@@H](C#N)[C@H](c6ccccc6)C5)N4C3=O)cc2c1 (single isomer, unassigned)
4. CC(C)(C)C(=O)SCCOP(=O)(OCCSC(=O)C(C)(C)C)C(F)(F)c1ccc2sc(C(=O)N[C@H]3CC4(CC[C@H]5CC[C@@H](C(=O)N6CC(c7cccnc7)C6)N5C3=O)CC4)cc2c1
5. CC(C)OC(=O)[C@H](C)NP(=O)(Cc1ccc2sc(C(=O)N[C@H]3CCC[C@H]4CC[C@@H](C(=O)N5CC(c6cccnc6)C5)N4C3=O)cc2c1)Oc1ccccc1 (some centres unmarked)

output:
> 3000 nM
< 100 nM
100 to 1000 nM
< 100 nM
100 to 1000 nM

* * *

molecular target: pY705-STAT3 in PBMC (Homo sapiens, UniProt P40763); construct: Cryopreserved Peripheral Blood Mononuclear Cells (PBMC) are from AllCells; host or cells: cryopreserved PBMC; assay: MSD-pSTAT-PBMC Assay (pSTAT3, IL-6 stimulated); type: cell-based; settings: PBMC, compound 3 hrs, then 10 ng/mL IL-6 for 10 min; Table 1114; read-out: pSTAT3
pIC50: −log10 of the molar value.
Measurement Name: pIC50

INSERT INTO results (compound, observed) VALUES
  ('CC(C)OC(=O)OCOP(=O)(Cc1ccc2sc(C(=O)N[C@H]3CCCC4CC[C@@H](C(=O)N5CC(c6cccnc6)C5)N4C3=O)cc2c1)OCOC(=O)OC(C)C (stereo partly drawn)', '> 7.00'),
  ('CC(C)(C)C(=O)OCOP(=O)(OCOC(=O)C(C)(C)C)C(F)(F)c1ccc2sc(C(=O)N[C@H]3CCCCC4CC[C@@H](C(=O)N5C[C@H](C6CCCCC6)[C@@H](C#N)C5)N4C3=O)cc2c1 (relative stereo)', '6.00 to 7.00');

Query compound follows.
Record CC(C)(C)C(=O)OCOP(=O)(OCOC(=O)C(C)(C)C)[C@@H](F)c1ccc2sc(C(=O)N[C@H]3CCCC[C@H]4CC[C@@H](C(=O)N5C[C@@H](C#N)[C@H](c6ccccc6)C5)N4C3=O)cc2c1 (single isomer, unassigned) / pY705-STAT3 in PBMC (Homo sapiens, UniProt P40763), pIC50 recorded as 6.00 to 7.00
